Where do these numbers come from? They come from ChEMBL document CHEMBL5726496.

- Study system: Histone deacetylase 1 (Homo sapiens)
- Sequence (Q13547 whole entry): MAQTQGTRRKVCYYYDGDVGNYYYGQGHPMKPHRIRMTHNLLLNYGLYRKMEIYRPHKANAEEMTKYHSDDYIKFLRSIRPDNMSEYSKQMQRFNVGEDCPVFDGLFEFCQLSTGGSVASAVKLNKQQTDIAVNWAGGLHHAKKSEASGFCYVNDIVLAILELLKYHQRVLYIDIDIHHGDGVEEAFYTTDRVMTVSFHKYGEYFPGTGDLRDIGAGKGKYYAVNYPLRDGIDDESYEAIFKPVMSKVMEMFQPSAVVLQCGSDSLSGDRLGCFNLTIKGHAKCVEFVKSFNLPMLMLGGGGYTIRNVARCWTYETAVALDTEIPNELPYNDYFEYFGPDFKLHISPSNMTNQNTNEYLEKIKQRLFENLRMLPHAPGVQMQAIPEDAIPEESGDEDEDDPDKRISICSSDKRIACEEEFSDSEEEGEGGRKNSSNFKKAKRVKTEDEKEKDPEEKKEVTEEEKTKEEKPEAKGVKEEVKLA
Measurement kind: pIC50
Give bare numbers, as −log10 of the molar value.

Briefly, pIC50 measured for `Nc1ccc(-c2ccccc2)cc1NC(=O)c1cnc(NC2CCN(C(=O)Cc3c[nH]c4ccccc34)CC2)nc1` : 7.66
